# experimental.system: UniProt P29475
# protocol.details: Inhibition of NO synthase activity by conversion of [3H]arginine to [3H]citrulline (crude enzyme lysate)
# Type: biochemical
measured.parameter: pIC50
Give only the number. pIC50 is defined as minus log10 of concentration in molar units.

Recorded pIC50 (compound CCc1cc(-c2cccc(N)n2)c(OC)cc1CNC [Example 3] ): 7.52

* * *

# experimental.system: neuronal NOS (Homo sapiens)
# Sequence (P29475 whole entry): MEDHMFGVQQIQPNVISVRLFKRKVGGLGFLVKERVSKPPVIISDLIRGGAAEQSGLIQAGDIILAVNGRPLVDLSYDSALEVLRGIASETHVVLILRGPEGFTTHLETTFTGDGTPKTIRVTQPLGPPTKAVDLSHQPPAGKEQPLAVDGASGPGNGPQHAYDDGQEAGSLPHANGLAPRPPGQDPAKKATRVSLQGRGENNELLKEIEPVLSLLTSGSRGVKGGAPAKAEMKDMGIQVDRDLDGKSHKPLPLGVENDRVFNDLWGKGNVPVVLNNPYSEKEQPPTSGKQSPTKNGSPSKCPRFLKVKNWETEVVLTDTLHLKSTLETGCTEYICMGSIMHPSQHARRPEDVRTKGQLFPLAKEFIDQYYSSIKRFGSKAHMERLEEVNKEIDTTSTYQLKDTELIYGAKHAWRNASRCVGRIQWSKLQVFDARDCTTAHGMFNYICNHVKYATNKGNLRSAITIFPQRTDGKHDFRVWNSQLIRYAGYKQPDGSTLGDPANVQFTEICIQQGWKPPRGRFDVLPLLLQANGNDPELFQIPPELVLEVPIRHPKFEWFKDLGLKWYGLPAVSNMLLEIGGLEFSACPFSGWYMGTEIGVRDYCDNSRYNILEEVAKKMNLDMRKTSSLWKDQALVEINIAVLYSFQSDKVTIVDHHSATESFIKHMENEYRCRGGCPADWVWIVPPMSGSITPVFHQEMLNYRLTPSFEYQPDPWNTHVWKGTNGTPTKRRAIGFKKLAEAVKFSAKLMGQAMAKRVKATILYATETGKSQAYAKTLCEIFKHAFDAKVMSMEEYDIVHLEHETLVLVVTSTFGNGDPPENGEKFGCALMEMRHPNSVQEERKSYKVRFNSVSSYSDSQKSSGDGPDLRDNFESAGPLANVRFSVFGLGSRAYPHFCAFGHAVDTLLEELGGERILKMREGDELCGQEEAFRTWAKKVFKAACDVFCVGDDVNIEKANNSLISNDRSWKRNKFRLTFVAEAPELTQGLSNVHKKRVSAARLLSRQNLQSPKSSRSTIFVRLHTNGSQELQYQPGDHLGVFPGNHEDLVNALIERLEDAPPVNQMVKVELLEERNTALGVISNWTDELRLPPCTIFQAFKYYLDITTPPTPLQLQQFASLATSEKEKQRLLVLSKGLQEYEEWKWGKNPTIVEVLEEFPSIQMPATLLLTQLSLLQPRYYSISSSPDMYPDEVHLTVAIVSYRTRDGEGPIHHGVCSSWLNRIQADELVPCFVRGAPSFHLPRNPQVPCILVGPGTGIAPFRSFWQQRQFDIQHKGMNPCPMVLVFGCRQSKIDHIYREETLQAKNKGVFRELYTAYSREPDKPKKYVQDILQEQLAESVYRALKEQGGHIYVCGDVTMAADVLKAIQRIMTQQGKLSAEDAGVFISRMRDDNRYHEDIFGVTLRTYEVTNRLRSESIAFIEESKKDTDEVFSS
# protocol.details: Inhibition of NO synthase activity by conversion of [3H]arginine to [3H]citrulline (crude enzyme lysate)
# Format: biochemical
# experimental.context: crude enzyme lysate, [3H]arginine to [3H]citrulline, 50 minutes at 30°C; read-out: IC50 for inhibition of neuronal NOS
measured.parameter: IC50 (nM)
Use nM as the unit, but write only the number.

Response field IC50 (neuronal NOS (Homo sapiens)) for item `CCc1cc(-c2cccc(N)n2)c(OC)cc1OC1CNC1` : 36
